These data points were gathered from BindingDB's records for doi:10.1016/j.bmcl.2011.04.103.

Catalogue of IC50 readings, one per entry.
- Protocol: Inhibition of N-terminal SHH activated pathway in mouse C3H10T1/2 cells assessed as SAG-induced cell differentiation by alkaline phosphatase assay
Form entry: value (nM) — number only.

For orientation, consider the following solved cases.
- Chemical Smiles: "CC1=C2C[C@H]3[C@@H](CC=C4C[C@@H](O)CC[C@@]43C)[C@@H]2CC[C@]12O[C@@H]1C[C@H](C)CN[C@H]1[C@H]2C"
  Parameter Measured: "IC50"
  Meas Value: 600
- Chemical Smiles: "COc1cccc(CN(C(=O)CC(C)(C)C)[C@H]2C[C@@H](C(=O)N3CCNCC3)N(Cc3ccc4c(c3)OCO4)C2)c1"
  Parameter Measured: "IC50"
  Meas Value: 300

Could you tell me which IC50 is on file for C[C@H]([C@@H]1CCCCN1)[C@H]1CC[C@H]2[C@@H]3CC=C4C[C@@H](O)CC[C@]4(C)[C@H]3CC[C@]12C ?
3200
